Sourced from paper PMC5540273

Tested on: MRCKA
Conditions: concentration: 1 μM, replicates: in singlicate; n = 1;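 further: KINOMEscan kinase panel screen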
property_label: %Inh (%)

molecule | measurement_unit | measured_value
O=C(Nc1c(F)cccc1F)c1cc(C(=O)c2ccccc2F)c[nH]1 | % | 0
Cc1ccc(C)c(NC(=O)Nc2ccc(C)c(-c3ccc(C(=O)Nc4ccncc4)cc3)c2)c1 | % | 24
COC(=O)Nc1nc2ccc(Oc3ccc(NC(=O)Nc4cc(C(F)(F)F)ccc4F)cc3)cc2[nH]1.Cl | % | 15
Nc1ncc(-c2cn[nH]c2)c2scc(-c3ccc4c(c3)CCN4C(=O)Cc3ccccc3)c12 | % | 0
Cc1cc(-c2c(-c3ccc(F)cc3)ncn2CCCN2CCOCC2)nc(N)n1 | % | 0
NCCC(NC(=O)c1cc(Br)c(-c2ccnc3[nH]ccc23)s1)c1ccccc1.O=C(O)C(F)(F)F.O=C(O)C(F)(F)F (centres unmarked) | % | 86
CC(C)c1nc(-c2ccc(F)c(NS(=O)(=O)c3c(F)cccc3F)c2)c(-c2ccnc(Nc3ccc(N4CCOCC4)nc3)n2)s1 | % | 4
Nc1cccc(-c2ccc3c(N)n[nH]c3c2)c1 | % | 0

* * *

Tested on: ERK5
Construct: gene MAPK7
Conditions: concentration: 1 μM, replicates: in singlicate; n = 1

substance_smiles | %Inh, %
COc1ccc(C2=C(Nc3cccc(O)c3)C(=O)NC2=O)cc1 | 100
CN(c1ccc(NC(=O)Nc2cccc(Cl)c2)cc1)c1ccnc(N)n1.Cl | 0
CNc1nccc(-c2ccc3c(N)n[nH]c3c2)n1 | 9
CN(C)c1ncnc2nc[nH]c12 | 0
Cc1cc(-c2c(-c3ccc(F)cc3)ncn2CCCN2CCOCC2)nc(N)n1 | 0
CC(C)(C)c1ccc(C(=O)Nc2cn3cc(-n4ccnc4)ccc3n2)cc1 | 19
COc1ccc(C)c(Nc2ccnc(Nc3ccc(-c4cnc[nH]4)cc3)n2)c1.Cl | 0
N#Cc1cnc2cc(-c3cnc(CNCCN4CCOCC4)s3)ccc2c1Nc1ccc(Oc2ccccc2)cc1 | 0
Cn1cc(-c2ccc3c(c2)CCN3C(=O)Cc2cc(F)cc(C(F)(F)F)c2)c2c(N)ncnc21 | 0

* * *

Property: %Inh; scope: individual molecules
Tested on: AKT1
Details: concentration: 1 μM, replicates: in singlicate; n = 1

substance_smiles | tested_target | %Inh, %
N#CC1(c2cccc(C(=O)Nc3cccc(Oc4ccc5nc(NC(=O)C6CC6)sc5n4)c3)c2)CC1 | AKT1 | 27
Cc1ccc(O)cc1Nc1ccnc2ccc(C(C)(C)C)cc12 | AKT1 | 27
CN1CCN(Cc2ccc(NC(=O)Nc3ccc(N(C)c4ccnc(Nc5ccc(CS(C)(=O)=O)cc5)n4)cc3)cc2)CC1.Cl | AKT1 | 0
O=C(O)C(F)(F)F.O=c1[nH]ccc2nc(N[C@@H]3CCNC3)nc(Nc3cc(Cl)cc(Cl)c3)c12 | AKT1 | 0
O=C(O)C(F)(F)F.O=c1[nH]ccc2nc(N[C@@H]3CCNC3)nc(Nc3ccc4c(c3)S(=O)(=O)CC4)c12 | AKT1 | 0
Cc1ccccc1CC(=O)N1CCc2cc(-c3cn(C)c4ncnc(N)c34)ccc21 | AKT1 | 0
CN(C)c1ncnc2nc[nH]c12 | AKT1 | 0
CC(=O)Nc1cn2nc(Oc3cccc(NC(=O)c4cccc(C(F)(F)F)c4)c3)ccc2n1 | AKT1 | 20
